assay-system: pooled human IgG
measurement-type: Enzyme Activity Endpoint Assay (purified): IgG
Note to self: number, then unit, no commentary.

Would you please look over these solved cases?
- protein: "PRT-76 (protein) MANQEIRYSEVTPYHITSVWTKGVTPPAKFTQGEDVFHAPYVANQGWYDITKTFNGKDDLLCGAATAGNMLHWWFDQNKEEIEAYLKKHPEKQKIMFGDQELLDVRKVINTKDSQTNSALFNYFKDKAFPNLSARRLGVMPDLVLDMFINGYYLNVYKTQTTDVNRTYQTKDRRGGIFDAVFTRGDQSKLLTERHDFKEKTLKEISDLIKQELTEGKALGLSHTYANVRINHVINLWGADFDSNGNLEAIYVTDSDSNASIGMKKYFVGVNSAGKVAISAKEIKEDNIGAQVLGLFTLSTGQDIWNQTN"
  recorded-measurement: "37 ng/µL"
- protein: "PRT-60 (protein) MANQEIRYSEVTPYHVTSVWTKGVTPPANFTQGEDVFHAPYVANQGWYDITKTFNGKDDLLCGAATAGNMLHWWFDQNKDQIKRYLEEHPEKAKINFNGEQMFDVKEAIDTKNHQLDSKLFEYFKEKAFPYLSTKHLGVFPDHVIDMFINGYRLSLTNHGPTPVKEGSKDPRGGIFDAVFGRGDQSKLLTSRHDFKEKNLKEISDLIKKELTEGKALGLSHTYANVRINHVINLWGADFDSNGNLKAIYVTDSDSNASIGMKKYFVGVNSAGKVAISAKEIKEDNIGAQVLGLFTLSTGQDSWNQTN"
  recorded-measurement: "16 ng/µL"
- protein: "PRT-111 (protein) MRNATEAYAKEVPHQITSVWTKGVTPPTPEQFRYNNEDVFHAPYLAHQGWYDITKTFNGKDNLLCGAATAGNMLHWWFDQNKTEIEAYLKKHPEKQKIIFNNQELFDLKAAIDTKDSQTNSQLFNYFRDKAFPNLSARQLGVMPDLVLDMFINGYYLNVFKTQSTDVNRPYQDKDKRGGIFDAVFTRGDQTTLLTNRHDLKNKGLNDISTLIKQELTEGKALALSHTYANVSISHVINLWGADFNAEGNLEAIYVTDSDANASIGMKKYFVGINSAGHVAISAKKIEGENIGAQVLGLFTLSSGKDIWQKLS"
  recorded-measurement: "26 ng/µL"

Here is another protein to look at.
[ask] Specify Enzyme Activity Endpoint Assay (purified): IgG for PRT-135 (protein) MRNATEAYAKEVPHQITSVWTKGVTPLTPEQFRYNNEDVIHAPYLAHQGWYDITKAFDGKDNLLCGAATAGNMLHWWFDQNKTEIEAYLSKHPEKQKIIFNNQELFDLKAAIDTKDSQTNSQLFNYFRDKAFPNLSARQLGVMPDLVLDMFINGYYLNVFKTQSTDVNRPYQDKDKRGGIFDAVFTRGDQTTLLTARHDLKNKGLNDISTIIKQELTEGKALALSHTYANVSISHVINLWGADFNAEGNLEAIYVTDSDANASIGMKKYFVGINAHGHVAISAKKIEGENIGAQVLGLFTLSSGKDIWQKLS and stop.
[reply] 0 ng/µL
